Please go through the items and note down their inhibition.
measured.on: Ephrin type-A receptor 4 (Homo sapiens)
study.conditions: at 1 µM
Description: GSK_PKIS: EPHA4 mean inhibition at 1 uM [Nanosyn]
Give just the number in %; leave the unit off.

Enquiry: Any idea what its inhibition is? The compound is Cn1cc(C=C2C(=O)Nc3cccnc32)c2ccccc21
Return: 6.23

Enquiry: Subsequent entry: CC(C)=Cc1cccc2c1/C(=N/Nc1ccc(S(N)(=O)=O)cc1)C(=O)N2
Return: 11

Enquiry: Subsequent entry: NC(=O)c1ccc(-c2nc(-c3ccccn3)c(-c3ccc4c(c3)OCO4)[nH]2)cc1
Return: 7.96

Enquiry: Subsequent entry: O=C1NC(=O)C(c2cccc(Cl)c2)=C1Nc1ccc(O)c(Cl)c1
Return: -8.81

Enquiry: Subsequent entry: NC(=O)c1cccc(Nc2nccc(Nc3cccc4[nH]ncc34)n2)c1
Return: 81.1

Enquiry: Subsequent entry: COc1cc2c(cc1Nc1nc(N3CCc4ccccc43)c3cc[nH]c3n1)N(C(=O)CN(C)C)CC2
Return: 6.36

Enquiry: Subsequent entry: Fc1cccc(COc2ccc(Nc3ncnc4sc(-c5cccs5)cc34)cc2Cl)c1
Return: 2.82

Enquiry: Subsequent entry: c1cnn2ncc(-c3ccnc(Nc4ccc5c(c4)OCCO5)n3)c2c1
Return: 28.2

Enquiry: Subsequent entry: NCc1ccc(-c2nc(-c3ccc(Cl)c(O)c3)c(-c3ccncc3)[nH]2)cc1
Return: 21.9

Enquiry: Subsequent entry: Nc1nc(-c2ccccn2)c(-c2ccc3ncccc3n2)s1
Return: 8.8

Enquiry: Subsequent entry: CC1=C(C(=O)Nc2ccc3[nH]ncc3c2)C(c2ccc(F)cc2)NC(=O)N1 (configuration not stated)
Return: 4.52

Enquiry: Subsequent entry: NS(=O)(=O)c1cccc(-c2ccc3c(NC(=O)C4CC4)n[nH]c3c2)c1
Return: -5.49

###

measured.on: Protein kinase C gamma type (Homo sapiens) (UniProt P05129)
study.conditions: at 1 µM
quantity.measured: inhibition (%)
Give just the number in %; leave the unit off.

Enquiry: Any idea what its inhibition is? The compound is CC(C)=Cc1cccc2c1/C(=N/Nc1ccc(S(N)(=O)=O)cc1)C(=O)N2
Return: 1.25

Enquiry: Subsequent entry: Cc1nn(C)c2cc(N(C)c3ccnc(Nc4cccc(S(N)(=O)=O)c4)n3)ccc12
Return: 10.3

Enquiry: Subsequent entry: CCn1c(-c2nonc2N)nc2cnc(Oc3cccc(NC(=O)c4ccc(OCCN5CCOCC5)cc4)c3)cc21
Return: 55

Enquiry: Subsequent entry: COc1ccc(-c2ccncc2)cc1C(N)=O
Return: 1.71

Enquiry: Subsequent entry: CC1=C(C(=O)Nc2ccc3[nH]ncc3c2)C(c2ccc3ccccc3c2)CC(=O)N1 (stereo not drawn)
Return: 2.79

Enquiry: Subsequent entry: Cn1cc(C=C2C(=O)Nc3cccnc32)c2ccccc21
Return: -0.93

Enquiry: Subsequent entry: CCn1c(-c2nonc2N)nc2c(C#CC(C)(C)O)nc(OC[C@@H](N)c3ccccc3)cc21
Return: 45.3

Enquiry: Subsequent entry: O=C1Nc2ccc(C(=O)c3ccco3)cc2C1=Cc1cc(Cl)c(O)c(Cl)c1
Return: 6.26

Enquiry: Subsequent entry: Nc1nc(-c2ccccn2)c(-c2ccc3ncccc3n2)s1
Return: 4.9

Enquiry: Subsequent entry: COc1cc2ncn(-c3cc(OCc4ccccc4Cl)c(C(N)=O)s3)c2cc1OC
Return: 2.36

Enquiry: Subsequent entry: Cc1ccc(NC(=O)c2ccnc(N3CCCC3)c2)cc1-c1ccc(C(=O)NCC2CC2)cc1
Return: 2.77

Enquiry: Subsequent entry: NS(=O)(=O)c1ccc(N/N=C2\C(=O)Nc3ccc(C(=O)NCCc4c[nH]cn4)cc32)cc1
Return: 5.55

Enquiry: Subsequent entry: CC1=C(C(=O)Nc2ccc3[nH]ncc3c2)C(c2ccc(F)cc2)NC(=O)N1 (stereo not drawn)
Return: 2.9

Enquiry: Subsequent entry: CCCN1CCC=C(c2ccc(Nc3nc(Nc4ccccc4C(N)=O)c4cc[nH]c4n3)c(C)c2)C1
Return: 9.77

Enquiry: Subsequent entry: COC(=O)Nc1nc2cc(Oc3ccc(NC(=O)Nc4cccc(C(=O)O)c4)cc3)ccc2[nH]1
Return: -0.24

Enquiry: Subsequent entry: COc1cc2ncn(-c3cc(OCc4ccccc4C(F)(F)F)c(C(N)=O)s3)c2cc1OC
Return: 0.51

Enquiry: Subsequent entry: Nc1ncnc2occ(-c3ccc(NC(=O)Nc4cccc(C(F)(F)F)c4)cc3)c12
Return: 2.18

Enquiry: Subsequent entry: CCn1c(-c2nonc2N)nc2c(N3CCCC3)nccc21
Return: 2.66

Enquiry: Subsequent entry: NC(=O)c1cccc(Nc2nccc(Nc3cccc4[nH]ncc34)n2)c1
Return: 9.98

Enquiry: Subsequent entry: COc1ccc(-c2coc3ncnc(N)c23)cc1
Return: 3.98

Enquiry: Subsequent entry: Cc1cccc(-c2n[nH]cc2-c2ccc3ncccc3n2)n1
Return: 0.55

Enquiry: Subsequent entry: O=C1NC(=O)C(c2cccc(Cl)c2)=C1Nc1ccc(O)c(Cl)c1
Return: 0.01

Enquiry: Subsequent entry: c1cnn2ncc(-c3ccnc(Nc4ccc5c(c4)OCCO5)n3)c2c1
Return: 9.81

###

Please go through the items and note down their inhibition.
measured.on: NT-3 growth factor receptor (Homo sapiens)
study.conditions: at 1 µM
Write the figure, then the unit, nothing else.

Enquiry: Requested read-out inhibition, target or system NT-3 growth factor receptor (Homo sapiens), entry CNC(=O)c1cncc(/C=C/c2c(Cl)cccc2Cl)c1;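 further: mean TRKC inhibition from the GSK PKIS kinase inhibitor set, with assays run by Nanosyn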
Return: 2.7%

Enquiry: Subsequent entry: CCn1c(-c2nonc2N)nc2c(C#CC(C)(C)O)nc(OC[C@@H](N)c3ccccc3)cc21
Return: 3.35%

Enquiry: Subsequent entry: CCn1c(-c2nonc2N)nc2c(N3CCCC3)nccc21
Return: -0.34%

Enquiry: Subsequent entry: CCn1c(-c2nonc2N)nc2c(C#CC(C)(C)O)nc(CN3CCCC3)cc21
Return: -2.34%

Enquiry: Subsequent entry: CS(=O)(=O)CCNCc1ccc(-c2ccc3ncnc(Nc4ccc(OCc5ccccc5)c(Cl)c4)c3c2)o1
Return: 2.17%

Enquiry: Subsequent entry: COc1cc2ncn(-c3cc(O[C@@H](C)c4ccccc4Cl)c(C(N)=O)s3)c2cc1OC
Return: 32.5%

Enquiry: Subsequent entry: CC1=C(C(=O)Nc2ccc3[nH]ncc3c2)C(c2ccc(Cl)c(Cl)c2)CC(=O)N1 (stereo unspecified)
Return: 1.92%

Enquiry: Subsequent entry: Cc1nn(C)c2cc(N(C)c3ccnc(Nc4cccc(S(N)(=O)=O)c4)n3)ccc12
Return: 12.3%

Enquiry: Subsequent entry: NCc1ccc(-c2nc(-c3ccc(Cl)c(O)c3)c(-c3ccncc3)[nH]2)cc1
Return: 1.61%

Enquiry: Subsequent entry: CCn1c(-c2nonc2N)nc2cncc(C(=O)N3CCNCC3)c21
Return: 4.33%

Enquiry: Subsequent entry: O=C1NC(=O)C(c2ccccc2Cl)=C1Nc1cccc(O)c1
Return: 4.4%

Enquiry: Subsequent entry: CCCN1CCC(Oc2cc(Nc3nc(Nc4cccc(F)c4C(N)=O)c4cc[nH]c4n3)c(OC)cc2Cl)CC1
Return: 5.25%

Enquiry: Subsequent entry: CCn1c(-c2nonc2N)nc2ccncc21
Return: -1.79%

Enquiry: Subsequent entry: CN1CCC(C(=O)Nc2n[nH]c3nnc(-c4ccccc4)cc23)CC1
Return: 6.56%

Enquiry: Subsequent entry: Cc1cccc(-c2n[nH]cc2-c2ccc3ncccc3n2)n1
Return: -0.92%

Enquiry: Subsequent entry: c1cnn2ncc(-c3ccnc(Nc4ccc5c(c4)OCCO5)n3)c2c1
Return: 21.3%

Enquiry: Subsequent entry: Nc1nc(-c2ccccn2)c(-c2ccc3ncccc3n2)s1
Return: 4.07%

Enquiry: Subsequent entry: COc1cc2ncn(-c3cc(O[C@H](C)c4ccccc4Cl)c(C(N)=O)s3)c2cc1OC
Return: 62.6%

Enquiry: Subsequent entry: Nc1ncnc2occ(-c3ccc(NC(=O)Nc4cc(C(F)(F)F)cc(C(F)(F)F)c4)cc3)c12
Return: 87.4%

Enquiry: Subsequent entry: COc1cc2ncn(-c3cc(OCc4ccccc4C(F)(F)F)c(C(N)=O)s3)c2cc1OC
Return: 10.4%

Enquiry: Subsequent entry: NC(=O)c1ccc(-c2nc(-c3ccccn3)c(-c3ccc4c(c3)OCO4)[nH]2)cc1
Return: 1.77%

###

measured.on: Dual specificity protein kinase TTK (Homo sapiens) (UniProt P33981)
Sequence (whole entry): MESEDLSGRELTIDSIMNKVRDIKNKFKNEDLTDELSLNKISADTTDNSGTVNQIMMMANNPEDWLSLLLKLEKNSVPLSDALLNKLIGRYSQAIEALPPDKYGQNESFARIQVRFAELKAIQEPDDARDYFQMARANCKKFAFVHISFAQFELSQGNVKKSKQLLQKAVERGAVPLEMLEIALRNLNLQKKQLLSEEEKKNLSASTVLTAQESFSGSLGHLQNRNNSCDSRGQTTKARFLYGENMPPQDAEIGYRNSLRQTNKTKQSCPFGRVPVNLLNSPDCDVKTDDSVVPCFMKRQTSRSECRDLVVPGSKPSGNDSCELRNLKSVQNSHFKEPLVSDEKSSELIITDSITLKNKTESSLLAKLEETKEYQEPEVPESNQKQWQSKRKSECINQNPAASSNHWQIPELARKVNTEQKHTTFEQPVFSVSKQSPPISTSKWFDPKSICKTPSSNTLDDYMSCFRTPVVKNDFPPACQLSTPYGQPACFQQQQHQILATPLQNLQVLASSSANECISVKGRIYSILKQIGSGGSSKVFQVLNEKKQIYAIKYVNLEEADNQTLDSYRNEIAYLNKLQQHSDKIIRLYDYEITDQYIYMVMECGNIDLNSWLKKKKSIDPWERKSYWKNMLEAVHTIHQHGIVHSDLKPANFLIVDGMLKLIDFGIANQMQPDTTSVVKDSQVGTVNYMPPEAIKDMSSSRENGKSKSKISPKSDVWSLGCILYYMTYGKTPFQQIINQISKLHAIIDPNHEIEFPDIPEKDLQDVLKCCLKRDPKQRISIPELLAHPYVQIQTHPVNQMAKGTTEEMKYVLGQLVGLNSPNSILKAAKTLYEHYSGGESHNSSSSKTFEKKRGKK
study.conditions: at 0.1 µM
Description: GSK_PKIS: TTK mean inhibition at 0.1 uM [Nanosyn]
Please go through the items and note down their inhibition.
Give just the number in %; leave the unit off.

Enquiry: Requested read-out inhibition, target or system Dual specificity protein kinase TTK (Homo sapiens) (UniProt P33981), entry NS(=O)(=O)c1cccc(-c2ccc3c(NC(=O)C4CC4)n[nH]c3c2)c1
Return: -4.5

Enquiry: Subsequent entry: CCn1c(-c2nonc2N)nc2cncc(C(=O)N3CC[C@H](N)C3)c21
Return: 16

Enquiry: Subsequent entry: Cc1ccc(C(=O)NC2CCCCC2)cc1-c1ccc(C(=O)NCC2CC2)cc1
Return: 2.82

Enquiry: Subsequent entry: CCn1c(-c2nonc2N)nc2cncc(C(=O)N3CCNCC3)c21
Return: 12.2
